All values here come from ChEMBL document CHEMBL1145292.

TEST SYSTEM: Glucocorticoid receptor (Homo sapiens)
Sequence (P04150 whole entry): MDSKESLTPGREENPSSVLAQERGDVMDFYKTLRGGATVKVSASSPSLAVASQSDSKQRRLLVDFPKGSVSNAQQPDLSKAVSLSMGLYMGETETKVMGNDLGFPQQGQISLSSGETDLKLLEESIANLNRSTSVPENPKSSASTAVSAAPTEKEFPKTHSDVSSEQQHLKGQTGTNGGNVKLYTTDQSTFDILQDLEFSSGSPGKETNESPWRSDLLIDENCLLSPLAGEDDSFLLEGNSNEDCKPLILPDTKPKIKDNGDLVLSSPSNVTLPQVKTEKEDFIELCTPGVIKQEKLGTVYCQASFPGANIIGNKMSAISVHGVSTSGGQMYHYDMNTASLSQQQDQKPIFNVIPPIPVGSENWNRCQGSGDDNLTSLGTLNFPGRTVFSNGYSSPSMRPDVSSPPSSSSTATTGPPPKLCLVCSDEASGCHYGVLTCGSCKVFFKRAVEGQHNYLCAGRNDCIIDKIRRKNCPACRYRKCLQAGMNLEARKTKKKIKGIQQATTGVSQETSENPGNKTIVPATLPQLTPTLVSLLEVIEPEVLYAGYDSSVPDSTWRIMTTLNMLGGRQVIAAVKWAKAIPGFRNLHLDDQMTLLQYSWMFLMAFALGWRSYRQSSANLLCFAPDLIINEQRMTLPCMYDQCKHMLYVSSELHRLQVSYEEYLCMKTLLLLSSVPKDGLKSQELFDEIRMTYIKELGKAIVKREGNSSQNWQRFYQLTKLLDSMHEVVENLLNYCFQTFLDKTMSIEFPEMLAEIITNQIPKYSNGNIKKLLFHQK
METHOD NOTES: Binding affinity to human GR
TEST READOUT: IC50 (nM)
State the answer as a number, implicitly in nM.

For orientation, consider the following solved cases.
INSERT INTO results (line_notation, test_readout, unit_abbrev, reported_measurement) VALUES
  ('CC#C[C@]1(O)CC[C@H]2[C@@H]3CCC4=CC(=O)CCC4=C3[C@@H](c3ccc(Oc4ccccc4)cc3)C[C@@]21C', 'IC50', 'nM', 1.5),
  ('C=CCOc1c(C)cc([C@H]2C[C@@]3(C)[C@@H](CC[C@@]3(O)C#CC)[C@@H]3CCC4=CC(=O)CCC4=C32)cc1Cl', 'IC50', 'nM', 1.5),
  ('CC#C[C@]1(O)CC[C@H]2[C@@H]3CCC4=CC(=O)CCC4=C3[C@@H](c3ccc(N(C)CCO[C@H]4CC[C@@]5(C)[C@@H](C4)C[C@@H](O)[C@@H]4[C@@H]5C[C@H](O)[C@]5(C)[C@@H]([C@H](C)CCC(=O)O)CC[C@@H]45)cc3)C[C@@]21C', 'IC50', 'nM', 1.2);

Attention now turns to another entry.
Query: Find the recorded IC50 belonging to CC#C[C@]1(O)CC[C@H]2[C@@H]3CCC4=CC(=O)CCC4=C3[C@@H](c3c(F)cc(OC)cc3F)C[C@@]21C and report it.
Result: 0.7
